Data provenance: PubChem BioAssay AID1963980

Consider the following compounds and their measured viability, T/C readings.
Test system: 475296-252-R-J1-PDC spheroid viability
Assay: Anticancer human tumor 475296-252-R-J1-PDC patient-derived rectal carcinoma cell line growth inhibition [PI3K]
Details: second compound 10 µM; first compound 0.000316 µM; stronger effect = lower value; spheroids with HUVEC and MSC
Quick reminder: number only, in %, skip the unit.

Entry CC(=O)c1c(C)c2cnc(Nc3ccc(N4CCNCC4)cn3)nc2n(C2CCCC2)c1=O + CC(Nc1ncnc2nc[nH]c12)c1cc2cccc(Cl)c2c(=O)n1-c1ccccc1 — recorded viability, T/C = 91.4

Notebook: CC(=O)c1c(C)c2cnc(Nc3ccc(N4CCNCC4)cn3)nc2n(C2CCCC2)c1=O + Cc1nc(NC(=O)N2CCCC2C(N)=O)sc1-c1ccnc(C(C)(C)C(F)(F)F)c1 , viability, T/C read as 98

The value of viability, T/C measured for the compound Cn1ncnc1[C@H]1c2n[nH]c(=O)c3cc(F)cc(c23)N[C@@H]1c1ccc(F)cc1 + CC(Nc1ncnc2nc[nH]c12)c1cc2cccc(Cl)c2c(=O)n1-c1ccccc1 turned out to be 97

====

Test system: 475296-252-R-J1-PDC spheroid viability
Test: Anticancer human tumor 475296-252-R-J1-PDC cell line growth inhibition [PI3K];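 note: spheroids exposed to agents for seven days before readout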
Details: second compound 0.0316 µM; first compound 0.1 µM; stronger effect = lower value; spheroids with HUVEC and MSC
assay readout: viability, T/C (%)
Please state the figure in %; there is no need to write the unit.

Example entries and their recorded answers appear below.
C[C@@H](NC(=O)c1ncnc(N)c1Cl)c1ncc(C(=O)Nc2cc(C(F)(F)F)c(Cl)cn2)s1 + CC(Nc1ncnc2nc[nH]c12)c1cc2cccc(Cl)c2c(=O)n1-c1ccccc1 ... 90.2
Cn1ncnc1[C@H]1c2n[nH]c(=O)c3cc(F)cc(c23)N[C@@H]1c1ccc(F)cc1 + COc1c(OCCCN2CCOCC2)ccc2c3n(c(=NC(=O)c4cnc(N)nc4)nc12)CCN3 ... 93.3

Lab note: Cn1nccc1Nc1nccc(-c2ccn(C(CO)c3ccc(Cl)c(F)c3)c(=O)c2)n1 (stereo not given) + Cc1nc(NC(=O)N2CCCC2C(N)=O)sc1-c1ccnc(C(C)(C)C(F)(F)F)c1 gave viability, T/C of 94.2

GET /value?item= CC(=O)c1c(C)c2cnc(Nc3ccc(N4CCNCC4)cn3)nc2n(C2CCCC2)c1=O + CC(Nc1ncnc2nc[nH]c12)c1cc2cccc(Cl)c2c(=O)n1-c1ccccc1 &field=viability, T/C returns 102

Given item CCCS(=O)(=O)Nc1ccc(F)c(C(=O)c2c[nH]c3ncc(-c4ccc(Cl)cc4)cc23)c1F + COc1c(OCCCN2CCOCC2)ccc2c3n(c(=NC(=O)c4cnc(N)nc4)nc12)CCN3 , the value recorded as its viability, T/C is 91.1

====

Test system: 475296-252-R-J1-PDC spheroid viability
Assay: Anticancer human tumor 475296-252-R-J1-PDC cell line growth inhibition [PI3K];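 note: spheroids exposed to agents for seven days before readout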
Details: second compound 1 µM; first compound 0.00949 µM; stronger effect = lower value; spheroids with HUVEC and MSC
assay readout: viability, T/C

Cn1cnc2c(F)c(Nc3ccc(Br)cc3Cl)c(C(=O)NOCCO)cc21 + Cc1nc(NC(=O)N2CCCC2C(N)=O)sc1-c1ccnc(C(C)(C)C(F)(F)F)c1 ... 79.9%
Cn1cnc2c(F)c(Nc3ccc(Br)cc3Cl)c(C(=O)NOCCO)cc21 + COc1c(OCCCN2CCOCC2)ccc2c3n(c(=NC(=O)c4cnc(N)nc4)nc12)CCN3 ... 47.1%
Cn1cnc2c(F)c(Nc3ccc(Br)cc3Cl)c(C(=O)NOCCO)cc21 + CC(Nc1ccc2c(c1)OCCn1cc(N3C(=O)OCC3C(F)F)nc1-2)C(N)=O ... 84.5%

Continue with the compound presented below.
viability, T/C for Cn1cnc2c(F)c(Nc3ccc(Br)cc3Cl)c(C(=O)NOCCO)cc21 + CC(Nc1ncnc2nc[nH]c12)c1cc2cccc(Cl)c2c(=O)n1-c1ccccc1 is 95.7%

====

Tested on: 475296-252-R-J1-PDC spheroid viability
Experiment: Anticancer human tumor 475296-252-R-J1-PDC cell line growth inhibition [PI3K];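 note: spheroids exposed to agents for seven days before readout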
Settings: second compound 0.01 µM; first compound 0.1 µM; stronger effect = lower value; spheroids with HUVEC and MSC
From the text: Combinatorial screen of targeted agents with the PI3K inhibitors inavolisib, alpelisib, duvelisib, and copanlisib in multi-cell type tumor spheroids A high-throughput screen of multi-cell type tumor spheroids was designed to identify active combinations of targeted small molecules and PI3K pathway inhibitors. […] Compounds. […] If the clinical Cmax for an agent had not been determined, the highest concentration tested was 10 microM. […]
assay readout: viability, T/C (%)
Numeric answer only, unit % assumed.

Summary for this compound, CCCS(=O)(=O)Nc1ccc(F)c(C(=O)c2c[nH]c3ncc(-c4ccc(Cl)cc4)cc23)c1F + CC(Nc1ccc2c(c1)OCCn1cc(N3C(=O)OCC3C(F)F)nc1-2)C(N)=O : viability, T/C is 89

Item: Cn1ncnc1[C@H]1c2n[nH]c(=O)c3cc(F)cc(c23)N[C@@H]1c1ccc(F)cc1 + CC(Nc1ccc2c(c1)OCCn1cc(N3C(=O)OCC3C(F)F)nc1-2)C(N)=O | viability, T/C: 92

====

Known viability, T/C of a selection of molecules
Test system: 475296-252-R-J1-PDC spheroid viability
Experiment: Anticancer human tumor 475296-252-R-J1-PDC cell line growth inhibition [PI3K];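 note: spheroids exposed to agents for seven days before readout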
Settings: second compound 3.16 µM; first compound 1 µM; stronger effect = lower value; spheroids with HUVEC and MSC
Give the quantity in %, number only.

// known answers, use as guide
CCN1CCN(Cc2ccc(Nc3ncc(F)c(-c4cc(F)c5nc(C)n(C(C)C)c5c4)n3)nc2)CC1 + Cc1nc(NC(=O)N2CCCC2C(N)=O)sc1-c1ccnc(C(C)(C)C(F)(F)F)c1 ... 73.1
C[C@@H](NC(=O)c1ncnc(N)c1Cl)c1ncc(C(=O)Nc2cc(C(F)(F)F)c(Cl)cn2)s1 + Cc1nc(NC(=O)N2CCCC2C(N)=O)sc1-c1ccnc(C(C)(C)C(F)(F)F)c1 ... 75.9
CC(C)NCC(C(=O)N1CCN(c2ncnc3c2C(C)CC3O)CC1)c1ccc(Cl)cc1 (stereo not given) + CC(Nc1ncnc2nc[nH]c12)c1cc2cccc(Cl)c2c(=O)n1-c1ccccc1 ... 76.1
CCN1CCN(Cc2ccc(Nc3ncc(F)c(-c4cc(F)c5nc(C)n(C(C)C)c5c4)n3)nc2)CC1 + CC(Nc1ncnc2nc[nH]c12)c1cc2cccc(Cl)c2c(=O)n1-c1ccccc1 ... 79.5

Field: next molecule
Field viability, T/C (475296-252-R-J1-PDC spheroid viability), entry CC1(C)CCC(CN2CCN(c3ccc(C(=O)NS(=O)(=O)c4ccc(NCC5CCOCC5)c([N+](=O)[O-])c4)c(Oc4cnc5[nH]ccc5c4)c3)CC2)=C(c2ccc(Cl)cc2)C1 + Cc1nc(NC(=O)N2CCCC2C(N)=O)sc1-c1ccnc(C(C)(C)C(F)(F)F)c1 : 90.5

====

Tested on: 475296-252-R-J1-PDC spheroid viability
Experiment: Anticancer human tumor 475296-252-R-J1-PDC cell line growth inhibition [PI3K];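 note: spheroids exposed to agents for seven days before readout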
Details: curve of first compound; second compound 3.16 µM; spheroids with HUVEC and MSC
assay readout: IC50 (nM)
Dear colleague, please return just the value in nM, with no unit written.

Cn1cnc2c(F)c(Nc3ccc(Br)cc3Cl)c(C(=O)NOCCO)cc21 + CC(Nc1ncnc2nc[nH]c12)c1cc2cccc(Cl)c2c(=O)n1-c1ccccc1 ... 2120

Then there is this compound:
// IC50 lookup, compound = C#Cc1c(F)ccc2cc(O)cc(-c3ncc4c(N5CC6CCC(C5)N6)nc(OCC56CCCN5CC(F)C6)nc4c3F)c12 (stereo not drawn) + Cc1nc(NC(=O)N2CCCC2C(N)=O)sc1-c1ccnc(C(C)(C)C(F)(F)F)c1 , result: 689

====

System: 475296-252-R-J1-PDC spheroid viability
Assay: Anticancer human tumor 475296-252-R-J1-PDC cell line growth inhibition [PI3K];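 note: spheroids exposed to agents for seven days before readout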
Conditions: second compound 3.16 µM; first compound 0.1 µM; stronger effect = lower value; spheroids with HUVEC and MSC
assay readout: viability, T/C

Cn1ncc(Cl)c1-c1cc(C(=O)NC(CN)Cc2cccc(F)c2)sc1Cl (stereo not drawn) + Cc1nc(NC(=O)N2CCCC2C(N)=O)sc1-c1ccnc(C(C)(C)C(F)(F)F)c1 ... 78.8%
CC(C)n1nc(-c2ccc3oc(N)nc3c2)c2c(N)ncnc21 + CC(Nc1ncnc2nc[nH]c12)c1cc2cccc(Cl)c2c(=O)n1-c1ccccc1 ... 61.2%

Query compound follows.
Recorded result, C[C@@H](NC(=O)c1ncnc(N)c1Cl)c1ncc(C(=O)Nc2cc(C(F)(F)F)c(Cl)cn2)s1 + CC(Nc1ncnc2nc[nH]c12)c1cc2cccc(Cl)c2c(=O)n1-c1ccccc1 , viability, T/C: 94.8%

====

System: 475296-252-R-J1-PDC spheroid viability
Experiment: Anticancer human tumor 475296-252-R-J1-PDC cell line growth inhibition [PI3K];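 note: spheroids exposed to agents for seven days before readout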
Conditions: second compound 1 µM; first compound 3.16 µM; stronger effect = lower value; spheroids with HUVEC and MSC
assay readout: viability, T/C (%)
Entry rule: numbers only, all in %.

Please review the following examples before continuing.
CC1(C)CCC(CN2CCN(c3ccc(C(=O)NS(=O)(=O)c4ccc(NCC5CCOCC5)c([N+](=O)[O-])c4)c(Oc4cnc5[nH]ccc5c4)c3)CC2)=C(c2ccc(Cl)cc2)C1 + CC(Nc1ncnc2nc[nH]c12)c1cc2cccc(Cl)c2c(=O)n1-c1ccccc1 ... 91.8
Cn1ncc(Cl)c1-c1cc(C(=O)NC(CN)Cc2cccc(F)c2)sc1Cl (stereo not given) + CC(Nc1ccc2c(c1)OCCn1cc(N3C(=O)OCC3C(F)F)nc1-2)C(N)=O ... 62
C[C@@H](NC(=O)c1ncnc(N)c1Cl)c1ncc(C(=O)Nc2cc(C(F)(F)F)c(Cl)cn2)s1 + CC(Nc1ccc2c(c1)OCCn1cc(N3C(=O)OCC3C(F)F)nc1-2)C(N)=O ... 83

Input CC(C)NCC(C(=O)N1CCN(c2ncnc3c2C(C)CC3O)CC1)c1ccc(Cl)cc1 (stereo not given) + COc1c(OCCCN2CCOCC2)ccc2c3n(c(=NC(=O)c4cnc(N)nc4)nc12)CCN3 . Output viability, T/C: 55.8

CC(C)NCC(C(=O)N1CCN(c2ncnc3c2C(C)CC3O)CC1)c1ccc(Cl)cc1 (stereo not given) + Cc1nc(NC(=O)N2CCCC2C(N)=O)sc1-c1ccnc(C(C)(C)C(F)(F)F)c1 yielded viability, T/C of 81.3
